System: p53 in A2780 cells
TEST_NAME: p53 ELISA (preservation of p53 in A2780 cells)
Format: cell-based
REPORTED_CONDITIONS: Homo sapiens, treated with compound for 16 hours, read-out: p53-elisa LAD (lowest dose giving at least 140% of the value for p53 present in the control)
Let's look at some compounds and their measured minimal effective concentration.
The response must be a number in µM with no trailing unit.

Recorded minimal effective concentration, per entry:
>  <COMPOUND>
O=C1N(CCc2c[nH]c3ccccc23)c2ccc(Nc3ccnc(CO)c3)cc2OC1(F)F [Compound 64]

>  <ASSAYED_TARGET>
p53 in A2780 cells

>  <EXPERIMENTAL_VALUE>
10

$$$$
>  <COMPOUND>
OC1CCc2c(Nc3ccc4c(c3)OC3(CCCCC3)CN4CCc3c[nH]c4ccccc34)ccnc21 (centres unmarked) [Compound 29]

>  <ASSAYED_TARGET>
p53 in A2780 cells

>  <EXPERIMENTAL_VALUE>
10

$$$$
>  <COMPOUND>
Cc1cccc2c(CCN3CCOc4cc(Nc5ccnc6c5CCC6O)ccc43)c[nH]c12 (centres unmarked) [Compound 14]

>  <ASSAYED_TARGET>
p53 in A2780 cells

>  <EXPERIMENTAL_VALUE>
3

$$$$
>  <COMPOUND>
OC1CCc2c(Nc3ccc4c(c3)OCCN4CCc3c[nH]c4ccccc34)ccnc21 (centres unmarked) [Compound 1]

>  <ASSAYED_TARGET>
p53 in A2780 cells

>  <EXPERIMENTAL_VALUE>
0.1

$$$$
>  <COMPOUND>
Cc1cccc2c(CCN3CC4(CCCCC4)Oc4cc(Nc5ccnc6c5CCC6O)ccc43)c[nH]c12 (centres unmarked) [Compound 25]

>  <ASSAYED_TARGET>
p53 in A2780 cells

>  <EXPERIMENTAL_VALUE>
0.03

$$$$

Given CN1CCN(CCc2c[nH]c3ccccc23)c2ccc(Nc3ccncc3)cc21 [Compound 76] , state its recorded minimal effective concentration. 10

Given CC1(C)CN(CCc2c[nH]c3ccccc23)c2ccc(Nc3ccnc4c3CCC4O)cc2O1 (centres unmarked) [Compound 77] , state its recorded minimal effective concentration. 3

Given O=C1COc2cc(Nc3ccnc4c3CCC4O)ccc2N1CCc1c[nH]c2ccccc12 (centres unmarked) [Compound 2] , state its recorded minimal effective concentration. 1

---

Let's look at some compounds and their measured minimal effective concentration.
Tested on: p53 in A2780 cells
TEST_NAME: p53 ELISA (preservation of p53 in A2780 cells)
Format: cell-based
REPORTED_CONDITIONS: Homo sapiens, treated with compound for 16 hours, read-out: p53-elisa LAD (lowest dose giving at least 140% of the value for p53 present in the control)

>  <COMPOUND>
c1ccc2c(CCN3CC4(CCOCC4)Oc4cc(Nc5ccncc5)ccc43)c[nH]c2c1 [Compound 7]

>  <ASSAYED_TARGET>
p53 in A2780 cells

>  <minimal effective concentration>
> 10 µM

$$$$

Given O=C1COc2cc(Nc3ccnc(CO)c3)ccc2N1CCc1c[nH]c2ccccc12 [Compound 21] , state its recorded minimal effective concentration. > 10 µM

Given OC1CCc2c(Nc3ccc4c(c3)OC3(CCSCC3)CN4CCc3c[nH]c4ccccc34)ccnc21 (stereo not shown) [Compound 26] , state its recorded minimal effective concentration. 0.03 µM

Given CC(C)N1CCC2(CC1)CN(CCc1c[nH]c3ccccc13)c1ccc(Nc3ccnc(CO)c3)cc1O2 [Compound 36] , state its recorded minimal effective concentration. > 10 µM
